# target or system: ITK (Homo sapiens, UniProt Q08881)
# Construct: purchased Promega Corporation
# Sequence (Q08881 whole entry): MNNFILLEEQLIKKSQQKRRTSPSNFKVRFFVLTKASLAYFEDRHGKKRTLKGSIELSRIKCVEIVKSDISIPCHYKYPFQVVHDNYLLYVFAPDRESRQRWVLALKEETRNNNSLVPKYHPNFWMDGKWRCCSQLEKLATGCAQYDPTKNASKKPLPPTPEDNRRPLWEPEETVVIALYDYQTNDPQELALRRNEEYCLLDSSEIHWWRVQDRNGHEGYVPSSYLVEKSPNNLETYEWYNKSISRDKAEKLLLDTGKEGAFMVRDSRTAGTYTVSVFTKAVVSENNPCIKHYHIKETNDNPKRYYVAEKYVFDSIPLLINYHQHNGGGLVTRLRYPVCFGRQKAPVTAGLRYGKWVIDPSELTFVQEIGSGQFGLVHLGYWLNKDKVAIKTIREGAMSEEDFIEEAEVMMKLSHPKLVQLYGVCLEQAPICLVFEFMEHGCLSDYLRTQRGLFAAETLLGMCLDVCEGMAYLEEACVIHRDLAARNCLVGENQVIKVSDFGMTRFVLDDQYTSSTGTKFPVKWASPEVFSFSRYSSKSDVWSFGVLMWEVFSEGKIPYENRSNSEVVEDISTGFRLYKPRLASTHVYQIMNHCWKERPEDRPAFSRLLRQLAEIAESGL
# protocol details: ADP-Glo ITK Kinase enzyme system inhibitory activity
# Format: biochemical
# cond: ADP-Glo kit (Promega), ATP 25 uM, duplicate; read-out: inhibitory activity against ITK (ITK IC50)
# Experimental: Inhibitory activities against BTK and ITK were measured for the compound represented by Chemical Formula 1 prepared in the above Examples as follows. In addition, the inhibitory activity against ITK was evaluated using ‘ADP-GIo™+ITK Kinase enzyme system’ kit (Promega Corporation). […] For the plate on which all reactions were completed, luminescence was measured and the results were calculated. […] The IC50 was calculated based on the calculated values.
pIC50: −log10 of the molar value.
measure: pIC50

>>> data_value("C=CC(=O)N1CCC[C@H](Nc2cc(CN3CCOCC3)cc(Nc3ncc(C)s3)n2)C1")
"8.77 to 9.00"

----------
# target or system: BTK (Homo sapiens)
# Sequence (Q06187 whole entry): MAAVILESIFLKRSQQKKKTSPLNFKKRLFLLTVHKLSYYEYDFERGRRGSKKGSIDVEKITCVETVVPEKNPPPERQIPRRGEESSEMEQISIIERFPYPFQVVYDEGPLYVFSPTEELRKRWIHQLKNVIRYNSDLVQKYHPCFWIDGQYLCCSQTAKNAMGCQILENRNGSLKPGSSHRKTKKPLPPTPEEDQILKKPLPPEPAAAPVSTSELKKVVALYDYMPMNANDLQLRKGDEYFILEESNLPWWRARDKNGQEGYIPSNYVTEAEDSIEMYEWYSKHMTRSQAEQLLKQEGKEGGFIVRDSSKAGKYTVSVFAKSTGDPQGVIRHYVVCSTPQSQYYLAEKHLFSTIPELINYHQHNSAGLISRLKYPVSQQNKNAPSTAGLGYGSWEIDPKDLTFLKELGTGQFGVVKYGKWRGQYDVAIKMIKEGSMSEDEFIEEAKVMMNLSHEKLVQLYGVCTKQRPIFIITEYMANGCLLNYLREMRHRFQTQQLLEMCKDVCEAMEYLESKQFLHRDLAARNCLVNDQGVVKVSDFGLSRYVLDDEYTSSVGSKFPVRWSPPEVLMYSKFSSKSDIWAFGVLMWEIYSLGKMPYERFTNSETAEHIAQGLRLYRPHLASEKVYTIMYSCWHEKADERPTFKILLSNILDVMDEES
measure: IC50

>>> data_value("C=CC(=O)N1CCC[C@H](Nc2cc(CN3CCOCC3)cc(Nc3ncc(C)s3)n2)C1")
"0.4 to 1.4 nM"
